SYSTEM_UNDER_TEST: JAK3 (Janus kinase 3) protein tyrosine kinase (Homo sapiens)
Sequence (P52333 1-1124): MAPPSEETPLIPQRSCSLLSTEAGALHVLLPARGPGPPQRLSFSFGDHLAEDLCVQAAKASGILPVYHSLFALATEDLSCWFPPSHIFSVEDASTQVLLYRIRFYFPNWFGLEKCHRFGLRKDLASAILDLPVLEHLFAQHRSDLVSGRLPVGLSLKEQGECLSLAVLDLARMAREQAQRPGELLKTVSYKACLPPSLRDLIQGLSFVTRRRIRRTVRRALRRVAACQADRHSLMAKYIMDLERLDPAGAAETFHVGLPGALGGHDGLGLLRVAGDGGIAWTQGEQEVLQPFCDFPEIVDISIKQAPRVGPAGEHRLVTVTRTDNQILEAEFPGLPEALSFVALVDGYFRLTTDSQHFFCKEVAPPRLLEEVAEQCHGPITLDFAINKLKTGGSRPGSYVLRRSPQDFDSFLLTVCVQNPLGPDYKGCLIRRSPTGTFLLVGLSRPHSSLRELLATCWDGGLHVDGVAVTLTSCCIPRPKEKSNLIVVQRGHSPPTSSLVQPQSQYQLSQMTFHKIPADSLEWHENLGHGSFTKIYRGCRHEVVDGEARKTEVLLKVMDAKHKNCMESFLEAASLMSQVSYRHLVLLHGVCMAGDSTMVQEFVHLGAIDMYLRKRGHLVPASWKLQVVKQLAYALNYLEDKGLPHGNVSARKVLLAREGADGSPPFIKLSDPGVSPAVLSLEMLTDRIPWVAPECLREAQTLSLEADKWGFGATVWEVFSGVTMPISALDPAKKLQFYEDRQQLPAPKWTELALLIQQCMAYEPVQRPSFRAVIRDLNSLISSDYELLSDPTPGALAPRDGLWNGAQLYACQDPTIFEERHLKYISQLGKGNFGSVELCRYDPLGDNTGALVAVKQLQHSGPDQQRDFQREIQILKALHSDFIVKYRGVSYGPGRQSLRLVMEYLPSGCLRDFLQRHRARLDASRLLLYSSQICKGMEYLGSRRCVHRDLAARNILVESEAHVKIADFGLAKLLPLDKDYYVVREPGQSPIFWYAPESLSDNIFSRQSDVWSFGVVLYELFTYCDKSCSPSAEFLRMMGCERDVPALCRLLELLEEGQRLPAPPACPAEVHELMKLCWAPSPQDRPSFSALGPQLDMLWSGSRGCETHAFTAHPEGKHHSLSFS
METHOD_SUMMARY: poly (Glu, Tyr) 4:1 ELISA, JAK3
PARTICULARS: inhibitors solubilized in DMSO, read-out: ec-50 (effective concentration for 50% inhibition) of JAK3
READOUT: EC50

{"columns": ["COMPOUND", "READOUT", "VALUE_OBSERVED"],
 "data": [
  ["NC1=NC(=O)C(=C2CCNC(=O)c3[nH]ccc32)N1 [DBH-2FB]", "EC50", "11.6 µM"],
  ["NC1=NC(=O)C(=C2CCNC(=O)c3[nH]c(Br)cc32)N1 [H]", "EC50", "2.6 to 10.7 µM"],
  ["NC1=NC(=O)C(=C2CCNC(=O)c3[nH]ccc32)N1 [DBH]", "EC50", "23.4 to 34.4 µM"]
]}

---

SYSTEM_UNDER_TEST: UniProt:P43403
Sequence (P43403 1-619): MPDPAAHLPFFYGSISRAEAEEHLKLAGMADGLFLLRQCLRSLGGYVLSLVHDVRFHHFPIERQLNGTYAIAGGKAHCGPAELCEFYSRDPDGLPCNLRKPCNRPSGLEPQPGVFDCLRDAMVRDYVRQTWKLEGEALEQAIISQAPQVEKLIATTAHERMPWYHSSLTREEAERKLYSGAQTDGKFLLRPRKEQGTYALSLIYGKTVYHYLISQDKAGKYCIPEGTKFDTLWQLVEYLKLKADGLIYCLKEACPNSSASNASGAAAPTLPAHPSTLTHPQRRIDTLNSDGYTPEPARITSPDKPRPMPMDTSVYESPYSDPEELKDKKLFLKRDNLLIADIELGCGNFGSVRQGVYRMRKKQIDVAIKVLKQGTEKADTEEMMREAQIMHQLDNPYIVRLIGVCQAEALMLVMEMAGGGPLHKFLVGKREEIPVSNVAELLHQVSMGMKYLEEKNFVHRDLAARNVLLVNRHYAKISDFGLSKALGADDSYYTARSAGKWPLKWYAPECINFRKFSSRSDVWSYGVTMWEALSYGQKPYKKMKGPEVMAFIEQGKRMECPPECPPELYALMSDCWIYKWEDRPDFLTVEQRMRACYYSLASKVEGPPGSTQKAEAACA
pIC50: −log10 of the molar value.
READOUT: pIC50

{"columns": ["COMPOUND", "VALUE_OBSERVED"],
 "data": [
  ["NC1=NC(=O)C(=C2CCNC(=O)c3[nH]ccc32)N1", "≤ 2.71"]
]}

---

SYSTEM_UNDER_TEST: IGFR (Insulin-like growth factor receptor) protein tyrosine kinase (Homo sapiens)
Sequence (P08069 31-1367): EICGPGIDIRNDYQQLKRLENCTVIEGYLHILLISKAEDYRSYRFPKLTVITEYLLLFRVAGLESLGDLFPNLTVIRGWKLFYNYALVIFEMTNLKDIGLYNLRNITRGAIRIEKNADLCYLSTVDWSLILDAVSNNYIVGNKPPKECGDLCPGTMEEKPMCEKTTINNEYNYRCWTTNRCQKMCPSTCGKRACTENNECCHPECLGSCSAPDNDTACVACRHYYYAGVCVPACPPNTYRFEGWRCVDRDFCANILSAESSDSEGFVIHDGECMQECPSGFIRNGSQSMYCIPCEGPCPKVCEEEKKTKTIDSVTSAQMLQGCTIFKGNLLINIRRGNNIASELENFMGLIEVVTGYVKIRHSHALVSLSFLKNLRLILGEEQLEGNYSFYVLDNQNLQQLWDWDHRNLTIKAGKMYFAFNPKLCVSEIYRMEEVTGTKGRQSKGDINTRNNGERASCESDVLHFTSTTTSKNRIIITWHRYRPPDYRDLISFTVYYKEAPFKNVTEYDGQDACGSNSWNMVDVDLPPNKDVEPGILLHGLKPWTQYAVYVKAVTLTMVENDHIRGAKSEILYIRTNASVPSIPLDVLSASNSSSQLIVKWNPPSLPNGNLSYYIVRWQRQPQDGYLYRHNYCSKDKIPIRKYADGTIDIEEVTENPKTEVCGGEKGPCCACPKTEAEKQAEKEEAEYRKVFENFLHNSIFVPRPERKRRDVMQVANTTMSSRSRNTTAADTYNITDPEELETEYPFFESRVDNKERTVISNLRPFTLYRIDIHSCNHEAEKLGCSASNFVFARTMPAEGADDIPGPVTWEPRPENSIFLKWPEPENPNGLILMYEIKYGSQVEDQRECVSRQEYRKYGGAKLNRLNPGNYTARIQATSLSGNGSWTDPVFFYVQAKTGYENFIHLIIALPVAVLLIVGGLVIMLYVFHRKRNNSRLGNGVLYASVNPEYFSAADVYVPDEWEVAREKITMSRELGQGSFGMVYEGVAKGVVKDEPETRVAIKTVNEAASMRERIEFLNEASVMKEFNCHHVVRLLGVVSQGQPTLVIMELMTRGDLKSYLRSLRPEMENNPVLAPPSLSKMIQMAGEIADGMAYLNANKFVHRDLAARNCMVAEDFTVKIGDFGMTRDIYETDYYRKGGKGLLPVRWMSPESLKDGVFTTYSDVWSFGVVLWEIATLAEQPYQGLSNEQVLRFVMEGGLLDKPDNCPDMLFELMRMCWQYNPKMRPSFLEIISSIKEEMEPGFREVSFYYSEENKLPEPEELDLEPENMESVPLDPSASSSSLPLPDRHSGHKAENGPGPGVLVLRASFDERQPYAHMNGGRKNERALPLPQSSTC

{"columns": ["COMPOUND", "IC50"],
 "data": [
  ["NC1=NC(=O)C(=C2CCNC(=O)c3[nH]ccc32)N1", "≥ 1.97 mM"]
]}

---

SYSTEM_UNDER_TEST: JAK3 (Homo sapiens, UniProt P52333)
Sequence (P52333 1-1124): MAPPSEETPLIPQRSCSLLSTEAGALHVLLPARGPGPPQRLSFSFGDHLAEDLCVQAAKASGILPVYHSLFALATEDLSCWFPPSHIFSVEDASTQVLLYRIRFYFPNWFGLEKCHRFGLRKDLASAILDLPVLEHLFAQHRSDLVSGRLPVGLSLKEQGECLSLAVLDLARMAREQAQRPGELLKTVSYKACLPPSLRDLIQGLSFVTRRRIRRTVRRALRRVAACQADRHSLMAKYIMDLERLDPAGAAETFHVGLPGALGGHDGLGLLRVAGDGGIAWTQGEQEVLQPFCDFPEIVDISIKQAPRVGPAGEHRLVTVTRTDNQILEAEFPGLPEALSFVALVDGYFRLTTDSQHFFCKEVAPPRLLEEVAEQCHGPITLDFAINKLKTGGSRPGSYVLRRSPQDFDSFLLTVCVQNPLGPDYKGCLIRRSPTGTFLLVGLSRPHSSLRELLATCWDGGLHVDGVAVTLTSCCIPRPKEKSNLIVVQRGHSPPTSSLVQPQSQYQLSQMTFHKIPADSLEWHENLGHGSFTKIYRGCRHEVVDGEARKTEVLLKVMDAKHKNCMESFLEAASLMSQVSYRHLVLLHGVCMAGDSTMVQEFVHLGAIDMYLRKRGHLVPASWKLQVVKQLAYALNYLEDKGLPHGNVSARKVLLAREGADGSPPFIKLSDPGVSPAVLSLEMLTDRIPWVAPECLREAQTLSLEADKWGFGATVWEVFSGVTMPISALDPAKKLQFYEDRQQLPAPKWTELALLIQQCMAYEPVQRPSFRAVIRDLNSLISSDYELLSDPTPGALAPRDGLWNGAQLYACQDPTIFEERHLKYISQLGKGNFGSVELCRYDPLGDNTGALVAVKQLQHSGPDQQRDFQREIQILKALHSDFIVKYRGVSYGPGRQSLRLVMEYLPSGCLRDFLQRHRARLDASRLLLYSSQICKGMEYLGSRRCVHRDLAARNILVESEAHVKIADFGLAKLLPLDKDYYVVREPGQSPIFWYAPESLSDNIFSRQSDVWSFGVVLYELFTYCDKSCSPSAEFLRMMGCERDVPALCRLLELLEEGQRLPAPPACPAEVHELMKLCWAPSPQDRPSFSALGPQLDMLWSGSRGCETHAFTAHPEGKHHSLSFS
READOUT: Ki

{"columns": ["COMPOUND", "READOUT", "VALUE_OBSERVED"],
 "data": [
  ["NC1=NC(=O)C(=C2CCNC(=O)c3[nH]ccc32)N1 [DBH]", "Ki", "286 nM"]
]}
